Give EC50 for every item shown.
Tested on: MKN45
Assay: Inhibition of cell viability (MTS), MKN45
Type: cell-based
Conditions: MKN45 cells, 96 hours incubation
Protocol: Cells were maintained at 37° C. in a humidified atmosphere containing 5%-8% CO2 following the instructions of the supplier (American Type Culture Collection (Rockville, Md.)). Inhibition of cell viability was determined for a panel of tumor cell lines (MKN45, EBC1 and A549), using the soluble tetrazolium salt, MTS (Promega, Madison, Wis.). […] EC50 values may be calculated by non-linear curve fitting of the compound concentrations and fluorescence intensities to the standard EC50 equation.
Structures can show the parent of a compound that is named as a salt.

// worked examples, EC50 included
| MOLECULE | ASSAY_VALUE |
| --- | --- |
| Cn1cc(-c2ccc3nnn(Cc4ccc5nc(NC(=O)C6CC6)cn5n4)c3c2)cn1 [13 (HCl Salt)] | 100 to 249 nM |
| Cn1cc(-c2ccc3nnn(Cc4ccc5nc(NC(=O)C6CC6)cn5n4)c3c2)cn1 [13 (TFA Salt)] | 60 to 100 nM |
| Cn1cc(-c2ccc3nnn(Cc4ccc5nc(NC(=O)C6CC6)cn5n4)c3c2)cn1 [13 (free base)] | < 30 nM |

Query molecule follows.
Ask: # return recorded EC50 for entry O=C(Nc1cn2nc(Sc3nnc4ccccn34)ccc2n1)C1CC1 [3 (TFA Salt)]
Result: 250 to 630 nM
